Where these numbers come from: patent US4476133A

target: benzodiazepine receptors; test: radio receptor assay using receptors extracted from brains of rats and 3H-diazepam; details: receptors extracted from rat brains
observed_property: Ki (nM)
Please reply with the bare figure in nM and do not write the unit itself.

Ki reading for OCc1nnc2n1-c1ccc(Cl)cc1C(c1ccccc1Cl)OC2 (stereo not shown) : 3.45
